# method.notes: Toxicity liver stage against HepG2, at 10uM
# Assay type: cell-based
# Parameters: test concentration 10 uM, cell line HepG2-A16-CD81EGFP
# condition: human, HepG2-A16-CD81EGFP cells; read-out: INHIBITION
Quick reference: cytotoxicity at 10 µM of the listed items.
All answers are understood in %, so give the number only.

The cases that follow already have their cytotoxicity at 10 µM on record.
[
  {
    "compound": "CC(=O)N(Cc1ncc(C(C)C)o1)C1CCN(CC2CCC2)C1 (stereo unspecified)",
    "reading": -11.8
  },
  {
    "compound": "Cc1nn(C(C)C)c(C)c1S(=O)(=O)Nc1ccc(C(=O)O)c(Cl)c1",
    "reading": -9.5
  },
  {
    "compound": "Cn1ccnc1CN1CCC2(CC1)CCN(c1ccccc1)C2=O",
    "reading": -9.06
  },
  {
    "compound": "O=C(COC[C@H]1CC[C@H]2[C@H](CCN2c2ncccn2)O1)N1CCCC1",
    "reading": -7.41
  },
  {
    "compound": "CO[C@H]1CN(Cc2ccc(F)c(F)c2)C[C@@]12CCCO2",
    "reading": -5.52
  }
]

For the compound shown here, Fc1cccc(CN2CCC3(CCCN3c3ncccn3)CC2)c1 , give the reported cytotoxicity at 10 µM.
3.62

// lookup cytotoxicity at 10 µM for COc1ccc(C2=CCN(C(=O)C3CCCN(C(C)=O)C3)CC2)cc1 (stereo unspecified)
-13.4

cytotoxicity at 10 µM lookup needed for CCN(CC)C(=O)c1ccn(COc2ccc(F)cc2F)n1 , thanks.
7.61

Query: cytotoxicity at 10 µM; subject: CC(CN(C)C)Nc1nc(O)cc(Cc2ccccc2F)n1 (stereo unspecified)
13.2

Reported cytotoxicity at 10 µM for CC(C)N1CCC(CC(=O)NC[C@H]2CCc3ccccc3O2)CC1 : what is it?
2.04

What value of cytotoxicity at 10 µM has been recorded for this entry: CCS(=O)(=O)N1CCCC2(COCCN(c3nncs3)C2)C1 (stereo unspecified)
7.77

====

# method.notes: Toxicity liver stage against HepG2, at 10uM
# Type: cell-based
# Design: test concentration 10 uM, cell line HepG2-A16-CD81EGFP
# condition: human, HepG2-A16-CD81EGFP cells; read-out: INHIBITION
recorded.endpoint: cytotoxicity at 10 µM
Could you give the number and then its unit, please?

[
  {
    "molecule": "CCC=C(C)C(=O)NCc1ccc(OC)nc1",
    "cytotoxicity at 10 µM": "-4.13%"
  },
  {
    "molecule": "N#Cc1nccnc1N1CCC(CSc2ccccc2)C1 (configuration not stated)",
    "cytotoxicity at 10 µM": "0.957%"
  },
  {
    "molecule": "CCCOCC(=O)N1CCc2c(cccc2S(=O)(=O)N2CCOCC2)C1",
    "cytotoxicity at 10 µM": "2.71%"
  },
  {
    "molecule": "O=C(CN1CCCCCCC1=O)NCc1ccccn1",
    "cytotoxicity at 10 µM": "-15.3%"
  },
  {
    "molecule": "CC(C)c1cc(NCc2csc(N(C)C)n2)nc(N)n1",
    "cytotoxicity at 10 µM": "31.8%"
  }
]

Report cytotoxicity at 10 µM for Cc1c[nH]c(CN2CCCCC2CCc2cccc(O)c2)c(C)c1=O (configuration not stated) please.
-14.6%

Which measured cytotoxicity at 10 µM value corresponds to C[C@@H]1CN(CCOc2ccc(F)cc2)CC[C@@]1(O)C1CCOCC1 ?
-7.19%

# query: cytotoxicity at 10 µM of entry COc1cccc(CN2CCCCC2Cn2nc(C)nc2C)c1 (configuration not stated)
-11.5%

Item O=C(Cc1ccncc1)N1C[C@@H]2CC[C@H]1CN(Cc1cccnc1)C2 has what recorded cytotoxicity at 10 µM?
2.89%

Which cytotoxicity at 10 µM is listed for O=C(NCc1ccccc1)N1C[C@@H]2C[C@H](C(=O)N3CCCC3)[C@H](C1)O2 ?
8.46%

So what does the record say about cytotoxicity at 10 µM for CCn1ncc2c1CN(C(=O)c1cc(C)oc1C)CC2COC (configuration not stated) ?
13%

Name the recorded cytotoxicity at 10 µM for Cc1nn(CCNC(=O)c2cc(C3CC3)[nH]n2)c(C)c1Cl .
-3.73%

Taken from ChEMBL document CHEMBL4513216.
